Measured furin cleavage Z-score, listed per entry for reference.
- Tested System: furin, P09958;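 note: purified furin at 1:10 enzyme:substrate in 50 mM HEPES pH 7.5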
- Sequence (P09958 whole entry): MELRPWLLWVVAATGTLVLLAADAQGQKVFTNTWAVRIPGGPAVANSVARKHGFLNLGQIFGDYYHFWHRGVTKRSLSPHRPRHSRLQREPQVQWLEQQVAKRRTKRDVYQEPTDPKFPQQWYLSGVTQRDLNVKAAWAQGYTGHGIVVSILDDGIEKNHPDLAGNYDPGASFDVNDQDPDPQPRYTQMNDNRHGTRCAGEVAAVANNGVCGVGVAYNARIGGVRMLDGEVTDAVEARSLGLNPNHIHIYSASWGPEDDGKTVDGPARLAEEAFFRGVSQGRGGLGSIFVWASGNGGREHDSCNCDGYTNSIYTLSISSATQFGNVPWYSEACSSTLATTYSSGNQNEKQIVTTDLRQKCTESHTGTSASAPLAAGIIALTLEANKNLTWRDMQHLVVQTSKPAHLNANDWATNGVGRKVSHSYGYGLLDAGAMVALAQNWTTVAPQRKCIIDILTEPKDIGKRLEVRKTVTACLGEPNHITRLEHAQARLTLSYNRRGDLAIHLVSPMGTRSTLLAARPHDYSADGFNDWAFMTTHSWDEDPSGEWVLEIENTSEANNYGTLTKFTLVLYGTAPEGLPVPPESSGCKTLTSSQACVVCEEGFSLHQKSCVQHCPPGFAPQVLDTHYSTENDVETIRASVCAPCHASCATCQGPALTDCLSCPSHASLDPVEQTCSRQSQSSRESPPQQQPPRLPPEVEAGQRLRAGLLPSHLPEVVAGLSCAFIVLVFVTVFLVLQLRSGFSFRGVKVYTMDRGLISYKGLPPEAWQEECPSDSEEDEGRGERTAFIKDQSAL
- Experiment Description: furin cleavage Z-score vs untreated control; higher = more cleavage, active = 3.5 or more, inactive = 1 or less, 8 variable residues between constant flanks
- Condition Set: 15 min
The list shows a part of the results. The hit rate among all sequences tested is not known here.
Please reply with the number alone, leaving off any unit.

sequence_code="CAVGKRQPRSAGNASASA [FS-1176]" quantitative_readout=10.9

Here is another sequence to look at.
Quick note, furin cleavage Z-score for CAAKARGPRSAGNASASA [FS-745] landed at 9.83
